# systemName: T1, alpha-amylase (Homo sapiens, UniProt P0DUB6 P0DUB6:16-511)
# T1 sequence: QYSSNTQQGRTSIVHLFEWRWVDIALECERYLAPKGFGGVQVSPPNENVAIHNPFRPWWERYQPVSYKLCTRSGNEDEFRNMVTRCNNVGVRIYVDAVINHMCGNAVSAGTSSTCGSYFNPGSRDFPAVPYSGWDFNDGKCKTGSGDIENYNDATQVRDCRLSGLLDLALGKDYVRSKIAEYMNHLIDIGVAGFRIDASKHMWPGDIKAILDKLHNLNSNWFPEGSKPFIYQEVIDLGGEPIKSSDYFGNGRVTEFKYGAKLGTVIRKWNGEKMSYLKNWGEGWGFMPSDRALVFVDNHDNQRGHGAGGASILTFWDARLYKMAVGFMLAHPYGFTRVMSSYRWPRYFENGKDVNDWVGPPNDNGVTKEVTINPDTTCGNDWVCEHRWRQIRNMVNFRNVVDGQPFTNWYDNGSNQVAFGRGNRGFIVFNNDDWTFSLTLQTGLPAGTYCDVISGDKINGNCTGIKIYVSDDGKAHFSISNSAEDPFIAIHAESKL
# protocol: SPR; SPR buffer with 1 mM MgCl2, pH 7.4; Chi2 24.55
# conditionDetails: tags: none stated; commercial human alpha-amylase, Lee Biosolutions; label: 3' poly(dA)20 captured on biotin-poly(dT)20
readoutType: Kd (nM)
Express your answer in nM, writing the number without its unit.

Prompt line: Query Kd for AML1243KR8m2s49Fw_s15 (ssDNA, KS9 modified T (formula 1) at underlined T, i.e. T 3' of the 5' primer region) DNA: TAACGCCGCCTATTGCTATGAGTAGTGTTTGTAGGTCTGGCAAAAAAAAAAAAAAAAAAAA
Response line: 2.66
